test system: KM12; experiment: NCI tumour cell line growth inhibition, 48 h
Activity calls are given as the source filed them. Rule as the data show it: active = GI50 up to about 1.1 µM and inactive = higher.
GI50 values, listed per item

Compound | Tested Target | Parameter | Obs Value
O=C(Nc1ccccc1)OCCN=C1c2ccccc2CCc2ccccc21 | KM12 | GI50 | 14.3 µM (inactive)
Cn1c(=O)c2c(no[n+]2[O-])c2ccccc21 | KM12 | GI50 | 12.4 µM (inactive)
N#CCN1CCCN(CC#N)CCN(CC#N)CCCN(CC#N)CC1 | KM12 | GI50 | 39.9 µM (inactive)
CC(C)(C)C1CCP(=O)(c2ccccc2)CC1 (configuration not stated) | KM12 | GI50 | > 100 µM (inactive)
COC(=O)c1c(OC)cccc1C(=O)O | KM12 | GI50 | > 100 µM (inactive)
CC(C)(C)[Si](C)(C)OCC1CCC(n2cnc3c(N)ncnc32)O1 (configuration not stated) | KM12 | GI50 | 39.1 µM (inactive)
Clc1ncc(C(Cl)(Cl)Cl)nc1-c1ccccc1 | KM12 | GI50 | 1.82 µM (inactive)
CC1(C)CNC(=O)C2(/C=N/C(C)(C)CNC(=O)C3(/C=N/1)CCCO3)CCCO2 (configuration not stated) | KM12 | GI50 | > 10 µM (inactive)
NC(CCSCC(F)F)C(=O)O (configuration not stated) | KM12 | GI50 | > 100 µM (inactive)
COc1cc(/C=C\c2ccncc2)cc(OC)c1OC | KM12 | GI50 | 48.1 µM (inactive)

Noted GI50 for CC(CCC(=O)O)(c1cc(Br)c(O)c(Br)c1)c1cc(Br)c(O)c(Br)c1 , tested on KM12: 45.1 µM (inactive)

Noted GI50 for O=C(O)CCCCCCCCC(=O)O [SEBACIC ACID] , tested on KM12: > 500 µM (inactive)

FYI, the data here is from ChEMBL document CHEMBL1201862.
